Molecular target: EPHB1 (UniProt P54762)
Sequence (P54762 whole entry, looked up): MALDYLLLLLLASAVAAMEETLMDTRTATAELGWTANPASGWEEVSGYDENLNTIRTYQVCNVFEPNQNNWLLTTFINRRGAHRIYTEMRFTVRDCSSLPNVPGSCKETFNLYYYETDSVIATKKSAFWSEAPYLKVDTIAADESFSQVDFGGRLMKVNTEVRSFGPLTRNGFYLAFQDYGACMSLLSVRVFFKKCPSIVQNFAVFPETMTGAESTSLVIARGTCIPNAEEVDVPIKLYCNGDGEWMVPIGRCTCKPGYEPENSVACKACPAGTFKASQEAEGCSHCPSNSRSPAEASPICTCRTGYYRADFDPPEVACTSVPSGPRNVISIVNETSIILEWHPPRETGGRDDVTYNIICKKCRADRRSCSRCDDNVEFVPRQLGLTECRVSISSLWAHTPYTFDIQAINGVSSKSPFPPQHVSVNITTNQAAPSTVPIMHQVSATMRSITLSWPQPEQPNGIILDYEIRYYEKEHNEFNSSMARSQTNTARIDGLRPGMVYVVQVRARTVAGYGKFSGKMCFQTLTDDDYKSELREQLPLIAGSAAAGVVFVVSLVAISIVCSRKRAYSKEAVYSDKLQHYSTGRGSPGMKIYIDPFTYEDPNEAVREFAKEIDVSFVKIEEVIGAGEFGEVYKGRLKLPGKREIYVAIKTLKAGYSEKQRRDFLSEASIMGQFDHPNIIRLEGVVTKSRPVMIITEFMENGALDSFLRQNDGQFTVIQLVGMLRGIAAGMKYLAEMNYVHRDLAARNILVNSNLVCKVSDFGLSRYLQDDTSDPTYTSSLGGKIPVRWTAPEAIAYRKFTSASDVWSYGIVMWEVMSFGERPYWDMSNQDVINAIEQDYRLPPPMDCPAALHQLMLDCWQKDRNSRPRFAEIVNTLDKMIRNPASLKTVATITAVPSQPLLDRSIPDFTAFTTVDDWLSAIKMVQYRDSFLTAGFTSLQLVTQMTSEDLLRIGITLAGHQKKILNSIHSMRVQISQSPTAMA
Test: phosphorylation enrichment, bacterial display (enrichment ratio); higher = better substrate or ligand; peptides without Tyr show the background;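 note: 11-residue human phosphosite peptides and single-mutation variants displayed on the E. coli surface, counted by deep sequencing, each peptide's frequency after selection divided by its frequency in the unselected input library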;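 note: frequency after pTyr selection over input frequency; kinase dosed for 20-30% of maximal phosphorylation in three min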
Label scheme for phosphorylation enrichment: lower than 0.5 is 0.0, 0.5 and above is 1.0.

INSERT INTO measurements (chain, label_value) VALUES
  ('RHAASYSSDSE [REPS1_Y116]', 0.0),
  ('DVCKNYAEAKD [ALB_Y343]', 1.0),
  ('SFCFRYRCAAQ [SUMF1_Y344_R349Q_YF]', 0.0),
  ('AASTDYFKRGD [PDHA1_Y242_YF]', 0.0),
  ('HFGCVYRGTLL [MET_Y1093_H1094R]', 1.0),
  ('GLRCGYGVLGG [KRTAP20-2_Y15_Y13C]', 0.0),
  ('ASTDFNKRGDF [PDHA1_Y243_Y243N_YF]', 0.0),
  ('CHRQLYHKCTH [F12_Y58_Y53C]', 0.0),
  ('ARLDEYIAIAK [RCOR3_Y46_K42R]', 0.0),
  ('RASGIYFVPKG [APBB1IP_Y340_YF]', 1.0),
  ('LDCNEYFRDLN [HPRT1_Y198_Y195C]', 1.0),
  ('VRFMADTDETF [F8_Y450_Y450D]', 1.0);

====

Target: EPHB1 (UniProt P54762)
Assay: phosphorylation enrichment, bacterial display (enrichment ratio); higher = better substrate or ligand; peptides without Tyr show the background
Label scheme for phosphorylation enrichment: lower than 0.5 is not met, 0.5 and above is met.

INSERT INTO assay_data (chain, measured_target, label_value) VALUES
  ('IDPYIYTPFGS [CYP3A4_Y432]', 'EPHB1 (UniProt P54762)', 'met'),
  ('FLAVGYHKLHI [IDS_Y225_P228L]', 'EPHB1 (UniProt P54762)', 'met'),
  ('VREIRCQGGNR [VWF_Y1570_Y1570C]', 'EPHB1 (UniProt P54762)', 'not met'),
  ('RAKLFYQEVPA [METTL11B_Y76]', 'EPHB1 (UniProt P54762)', 'met'),
  ('ALKKPYGVLYK [RPF2_Y59]', 'EPHB1 (UniProt P54762)', 'met'),
  ('EEALHYLTRVE [SET_Y119]', 'EPHB1 (UniProt P54762)', 'met'),
  ('VFLARYGPAWR [CYP2D6_Y124]', 'EPHB1 (UniProt P54762)', 'not met'),
  ('DPKFHYDNTAG [KDR_Y1214]', 'EPHB1 (UniProt P54762)', 'not met'),
  ('AALSAYAAQRP [PTPRN2_Y249]', 'EPHB1 (UniProt P54762)', 'not met'),
  ('AEKPKYQINNI [TJP1_Y1602]', 'EPHB1 (UniProt P54762)', 'not met'),
  ('ASRKFYAMKIL [AKT3_Y174_G171R_YF]', 'EPHB1 (UniProt P54762)', 'not met'),
  ('AAFNKYDQERF [CDC73_Y293_R292K_YF]', 'EPHB1 (UniProt P54762)', 'not met'),
  ('SAEKAYHEQFS [TUBA1A_Y282_L286F]', 'EPHB1 (UniProt P54762)', 'not met'),
  ('EEESCYILHSS [PATJ_Y783]', 'EPHB1 (UniProt P54762)', 'met'),
  ('EARRVYGDIIY [ALDH5A1_Y175_H180Y]', 'EPHB1 (UniProt P54762)', 'not met'),
  ('ERNAHYRTPKI [PTK2B_Y699_R698H]', 'EPHB1 (UniProt P54762)', 'met'),
  ('IENKLYGMSDS [RET_Y1062_P1067S]', 'EPHB1 (UniProt P54762)', 'not met'),
  ('KLLLKYSFHDA [RNF213_Y4141_V4146A]', 'EPHB1 (UniProt P54762)', 'met'),
  ('VRLTEYPCAGL', 'EPHB1 (UniProt P54762)', 'not met'),
  ('GYQPDYGQPAG [SYP_Y278]', 'EPHB1 (UniProt P54762)', 'not met'),
  ('EEALFYLTRVE [SET_Y119_H118Y_YF]', 'EPHB1 (UniProt P54762)', 'met'),
  ('WISNRSLDFSS [PRPH2_Y184_Y184S]', 'EPHB1 (UniProt P54762)', 'not met'),
  ('DKATEYSQFMR [MAX_Y70_I71S_YF]', 'EPHB1 (UniProt P54762)', 'not met'),
  ('RFLFFYSFLLK [PTEN_Y178_V175L_YF]', 'EPHB1 (UniProt P54762)', 'met'),
  ('VVSLFYGTALF [OR10C1_Y251_M246V]', 'EPHB1 (UniProt P54762)', 'met'),
  ('FPDFVYKCIKA [DPYSL2_Y479_R481C]', 'EPHB1 (UniProt P54762)', 'met'),
  ('AEMTGYVVTRW [MAPK13_Y182]', 'EPHB1 (UniProt P54762)', 'met'),
  ('SLIDGYFRLTA [JAK2_Y372_YF]', 'EPHB1 (UniProt P54762)', 'met'),
  ('GVRLYYRVRES [RB1_Y454_M457R]', 'EPHB1 (UniProt P54762)', 'not met'),
  ('SHNKFYMLVAH [MFSD8_Y134_R139H_YF]', 'EPHB1 (UniProt P54762)', 'met'),
  ('GQAPGYSYTAA [CYCS_Y47]', 'EPHB1 (UniProt P54762)', 'not met'),
  ('VTRLRYPVCFG [ITK_Y336]', 'EPHB1 (UniProt P54762)', 'met'),
  ('FLAATYPTLGQ [NF1_Y2508_V2511L_YF]', 'EPHB1 (UniProt P54762)', 'met'),
  ('IEPVIDVVQRR [ANOS1_Y217_Y217D]', 'EPHB1 (UniProt P54762)', 'not met'),
  ('SVVVPSEPPEV [TP53_Y220_Y220S]', 'EPHB1 (UniProt P54762)', 'met'),
  ('AIYWRYSKFFD [SH3PXD2B_Y45_R43W]', 'EPHB1 (UniProt P54762)', 'met'),
  ('TNLVPYTRIHF [TUBA1A_Y262_P263T]', 'EPHB1 (UniProt P54762)', 'not met'),
  ('GCVRMYELVHR [GLE1_Y135]', 'EPHB1 (UniProt P54762)', 'met'),
  ('LSDGPYSSPYE [EPOR_Y485_N487S]', 'EPHB1 (UniProt P54762)', 'met'),
  ('QMVGMYAFSFM [AVPR2_Y124_S126F_YF]', 'EPHB1 (UniProt P54762)', 'met'),
  ('TWSRSYRSDRL [CRYBB1_Y131_S129R]', 'EPHB1 (UniProt P54762)', 'not met'),
  ('VKMLEYRGKDV [CASP5_Y74_L75R]', 'EPHB1 (UniProt P54762)', 'not met'),
  ('SDTGQYQCLVF [AXL_Y115]', 'EPHB1 (UniProt P54762)', 'met'),
  ('TNYRLYLRSLE [MTM1_Y71]', 'EPHB1 (UniProt P54762)', 'met'),
  ('PASWTYVRWFD [PTDSS1_Y274]', 'EPHB1 (UniProt P54762)', 'met'),
  ('EQKKFYNATKK [SCN5A_Y1495_M1498T_YF]', 'EPHB1 (UniProt P54762)', 'not met'),
  ('FGSSSSGGAGG [RPA2_Y14_Y14S_YF]', 'EPHB1 (UniProt P54762)', 'not met'),
  ('FSDPSYVKQME [CDC5L_Y464_YF]', 'EPHB1 (UniProt P54762)', 'not met'),
  ('GVRYTYTIDGS [DCX_Y105_I104T]', 'EPHB1 (UniProt P54762)', 'met'),
  ('CTTIHYNYMCN [TP53_Y234]', 'EPHB1 (UniProt P54762)', 'met'),
  ('SCRENYSDSEE [LEMD3_Y258]', 'EPHB1 (UniProt P54762)', 'met'),
  ('KFFRVYQGQQP [MUTYH_Y494_V490F]', 'EPHB1 (UniProt P54762)', 'not met'),
  ('AFLLLCFNDTH [BMP15_Y235_Y235C]', 'EPHB1 (UniProt P54762)', 'met');

====

Test system: c-Src
Assay: phosphorylation enrichment, bacterial display (enrichment ratio); higher = better substrate or ligand; peptides without Tyr show the background
Items are presented alongside their recorded phosphorylation enrichment.
Endpoint label: phosphorylation enrichment

INSERT INTO results (chain, measured_value) VALUES
  ('GEDEPYSEPFA [APBA1_Y183_YF]', 0.598),
  ('SYNNKYGMVAQ [APOB_Y276_K273N]', 0.467),
  ('EHTTLYSNNST [KANSL1_Y223]', 0.455),
  ('WISNRSLDFSS [PRPH2_Y184_Y184S]', 0.321),
  ('FQEKSYIKGTS [LCTL_Y331_L326F]', 0.457),
  ('VATRWYRSLEL [CDKL5_Y177_P180L]', 0.314),
  ('QQLDEYQKLLD [LMNA_Y359_E361K]', 0.642),
  ('GAVGNYSRGLA [MGMT_Y158_G160R]', 0.383),
  ('GQAPGYSYTAA [CYCS_Y47]', 0.416),
  ('ADFPDCKFRPR [SOX11_Y116_Y116C_YF]', 0.465),
  ('MENFIYESMQY [CYP19A1_Y361_R365Q]', 6.84),
  ('YRVAGYKTQGG [TIA1_Y383_E384K]', 0.435),
  ('LTERDYSFVTT [ACTG2_Y199_G198D]', 0.977),
  ('IYHLSYHHNCE [PDE6B_Y227_L228H]', 2.29),
  ('DKATEYSQFMR [MAX_Y70_I71S_YF]', 0.873),
  ('QISRDYGVLLE [PRDX3_Y172]', 0.679),
  ('KGERGYPGTPG [COL4A1_Y348]', 0.419),
  ('RRAKGYPIFLF [ITGB2_Y125_D128Y_YF]', 0.857),
  ('AEMKRYAESSS [RAI14_Y869]', 0.382),
  ('NDHHVYLEGTL [ALDOB_Y223]', 0.421),
  ('GLCSYYETSKM [MAGED2_Y449_R446C]', 1.81),
  ('WTAHSYRMGST [ARHGEF7_Y785]', 0.374),
  ('EVVGRYSVHNA [MLH1_Y183]', 0.497),
  ('GTYEDYVEGLR [MYL6_Y89]', 1.43),
  ('SETDDYAEIID [PTK2_Y397]', 0.744),
  ('LQTYHYHGHSM [PDHA1_Y289_R288H]', 0.916),
  ('KIFPEYLSNWT [AIFM1_Y347_L344F]', 0.479),
  ('QRCFVYFFSFL [PTEN_Y176_R173C_YF]', 1.48),
  ('SPYAVYLFFTF [RPGRIP1_Y826_R827L]', 0.748);
